Listed substances paired with reported Activity
- Species: Rattus norvegicus
- TEST DESCRIPTION: Pressor activity in rat relative to angiotensin-2
- Assay type: functional
# number only, unit % dropped from output

H-DRVYIMPF-OH | 0.2
H-DRVYIAPF-OH | 0.8
H-DRVYILPF-OH | 0.02
H-DRVYIKPF-OH | 0.1
H-DRVYIEPF-OH | 0

(Q) Would you kindly share the measured Activity for "H-DRVYIRPF-OH" ?
(A) 0.01

(Q) Would you kindly share the measured Activity for "H-DRVYIFPF-OH" ?
(A) 3

Sourced from ChEMBL document CHEMBL3244319
